MEASUREMENT_NOTES: cancer stem cell viability inhibitors, primary screen, luminescence (AID 2717)
CONDITIONS_USED: cancer stem cell-like cells viability, at 7.5 µM
The whole screen tested about 300,000 compounds, of which about 3,200 (1.1%) were called active. Rule as the data show it: active = inhibition above about 75%; inconclusive = no clear call, values can overlap the other calls; inactive = below that; tested in HMLE shEcad cells. Only a selection was taken, and actives are over-represented in it overall.
Returns: one label drawn from active, inactive

COMPOUND | LABEL
NC(=O)NC(=O)CSc1nc2cc([N+](=O)[O-])ccc2n1-c1cccc(C(F)(F)F)c1 | active
COc1cc(/C=N/O)cc(Br)c1OS(=O)(=O)c1ccc(C)cc1 | inactive
CCCCn1c(-c2cccc(C)c2)nc2cc3[nH]c(=O)c(C(C)C)nc3cc21 | active
COc1cc(/C=N/O)ccc1OCc1ccc([N+](=O)[O-])cc1 | inactive
Cc1ccc2c(CN3CCN(S(=O)(=O)c4ccccc4C(F)(F)F)CC3)cc(=O)oc2c1 | inactive

State the result this test recorded for Cc1cccc(N2CCN(C(=O)COCc3cc(-c4ccc5c(c4)OCO5)on3)CC2)c1C .
active

Please indicate how the test categorized O=C(CC1SC(N2CCOCC2)=NC1=O)Nc1ccccc1F (configuration not stated) .
inactive
